Source: patent US20240392013A1

# Test system: cyIL1RAP
# METHOD_SUMMARY: Kinetics of IL1RAP mAbs by Octet, cynomolgus IL1RAP
# Format: binding
TEST_READOUT: cyIL1RAP kon(1/Ms)
Remember to quote the unit after the number.

Which cyIL1RAP kon(1/Ms) is reported for this molecule? 74804_12A21B: anti-IL1RAP mAb; VH SEQ ID NO:6, VL SEQ ID NO:23, κ light chain (antibody, V domains shown, 74804_12A21B VH and 74804_29D13A VH; 74804_12A21B VL) VH: QVQLLQSGAEVKKPGSSVKVSCKASGGTFSIYAIDWVRQAPGQGLEWMGGIIPIFGTANSAQKFQGRVTITADKSTSTAYMELSSLRSEDTAVYYCARNGATSDAFDMWGQGTMVTVSS VL: EIVLTQSPGTLSLSPGERATLSCRASLSVSSNYLAWFQQRPGQAPRLLIHGVSRRATGIPDRFSGSGSGTDFTLTISRLEPEDFAVYYCQQYGSSPLTFGGGTKVEIK
342200 M⁻¹ s⁻¹
